Every entry's value here was drawn from patent US20230233533A1.

- MEASUREMENT DESCRIPTION: in vitro
- Type: cell-based, human
- RUN CONDITIONS: human, CC50 A549
Entries whose CC50 at 48 h is below 60 µM take satisfied; entries at or above 60 µM take not satisfied.

Some solved entries appear below for comparison.
Cc1ccc(NC(=O)c2nnsc2[S+]([O-])c2ccc(Cl)cc2)cc1 (stereo not shown) [JMX1033-2] = not satisfied
O=C(Nc1cc(F)cc(C(F)(F)F)c1)c1nnsc1S(=O)(=O)c1ccc(Cl)cc1 [JMX1040] = satisfied
O=C(Nc1ccc(Cl)cc1)c1nnsc1S(=O)(=O)c1ccc(Cl)cc1 [JMX0571] = satisfied
O=C(Nc1ccc(C(F)(F)F)cc1)c1ncsc1S(=O)(=O)c1ccc(Cl)cc1 [JMX0521] = satisfied

INPUT: Bench note: check whether O=C(Nc1ccc(C(F)(F)F)cc1)c1nnsc1S(=O)(=O)c1ccc(Cl)cc1 [JMX0576] shows CC50 at 48 h below 60 µM
OUTPUT: satisfied

INPUT: Bench note: check whether O=C(Nc1ccc(Cl)cc1)c1ncsc1S(=O)(=O)c1ccc(Cl)cc1 [JMX0518] shows CC50 at 48 h below 60 µM
OUTPUT: satisfied

INPUT: Bench note: check whether O=C(Nc1cccc(F)c1)c1ncsc1S(=O)(=O)c1ccc(Cl)cc1 [JMX0517] shows CC50 at 48 h below 60 µM
OUTPUT: not satisfied
